Where do the numbers come from? From patent US20240409645A1.

study_target: T1, human common cytokine receptor γ-chain (γc; IL-2Rγ; CD132), recombinant protein (human) (UniProt P31785)
T1 sequence: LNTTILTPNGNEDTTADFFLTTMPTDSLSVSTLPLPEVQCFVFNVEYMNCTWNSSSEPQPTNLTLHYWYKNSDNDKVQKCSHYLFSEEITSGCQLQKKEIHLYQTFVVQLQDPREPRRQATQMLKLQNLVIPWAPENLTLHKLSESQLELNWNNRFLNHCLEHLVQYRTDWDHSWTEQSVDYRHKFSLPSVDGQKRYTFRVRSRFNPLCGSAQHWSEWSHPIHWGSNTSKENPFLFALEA
assay_explanation: ELISA, monovalent VHH-hFc
Measured EC50, listed per entry.
Value expressed in nM; do not type the unit.

Observe how each entry below is paired with its result.
binder	unit_symbol	EC50
36-MP07F02 VHH-hFc, monospecific monovalent (Fc fusion, part only; not given: Both Fc arms and linker, not shown: another chain or arm of the molecule; a dimerising Fc or GST; small tags and cut ends) VHH: QVQLVESGGGLVQAGGSLRLSCAASGRTLSRYAMGWFRQAPGSEREFVAASSWGGDTFYADSVEGRFTFSRDNAKNAVYLQMNSLQPEDTAAYYCAAAPTSFPTTAYSSSNSYAYWGQGTQVTVSS	nM	0.145
34-MP04A12 VHH-hFc, monospecific monovalent (Fc fusion, part only; not given: Both Fc arms and linker, not shown: another chain or arm of the molecule; a dimerising Fc or GST; large carriers; small tags and cut ends) VHH: QVQLVESGGGLVQAGSSLRLSCAASGRTLSRLAMGWFRQAPGKEREFVAVNSWGGDTFYADSVEGRFTYSRDNAKSAVYLQMNSLQPEDTAVYYCAAAPTSFATTAYSSSNSYAYWGQGAQVTVSS	nM	0.132
37-MP07F09 VHH-hFc, monospecific monovalent (Fc fusion, part only; not given: Both Fc arms and linker, not shown: another chain or arm of the molecule; a dimerising Fc or GST; small tags and cut ends) VHH: QVQLVESGGGLVQAGGSLRLSCAASGRTLSRYAMGWFRQAPGKEREYVAIDSWGGDTFYADSVEGRFTFSRDNAKNEVYLQMNSLQPEDTAVYYCAGAPTSFATTAYSSSNSYRYWGQGTQVTVSS	nM	0.081

Now for another entry.
# input # EC50 lookup, item 38-MP07A11 VHH-hFc, monospecific monovalent (Fc fusion, part only; not given: Both Fc arms and linker, not shown: another chain or arm of the molecule; a dimerising Fc or GST; small tags and cut ends) VHH: QVQLVESGGGLVQAGGSLRLSCAASGRSLSRDAMGWFRQAPGKEREFVAVMSWGGDTFYTDSVEGRFTFSRDNAKNAVYLEMNDLQPEDTAVYYCAAAPTSFATTAYSSSNSYSYWGRGTQVTVSS
# output 0.107
